assay-target: OsWRKY34 (Oryza sativa, UniProt Q0JBA9 1-250)
Sequence (Q0JBA9 entry or part of it): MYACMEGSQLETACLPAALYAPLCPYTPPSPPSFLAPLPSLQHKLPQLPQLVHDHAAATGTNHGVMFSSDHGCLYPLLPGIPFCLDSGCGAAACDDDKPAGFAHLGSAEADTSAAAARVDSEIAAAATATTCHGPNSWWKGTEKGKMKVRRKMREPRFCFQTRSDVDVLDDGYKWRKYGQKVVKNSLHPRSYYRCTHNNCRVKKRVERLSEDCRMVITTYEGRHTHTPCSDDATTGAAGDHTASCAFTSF
test-summary: protein-binding microarray (RPBM); PBS, 2% BSA, 51.3 ng/ul salmon testes DNA, 50 uM zinc acetate, 200 nM TF, 25 C, 1 h; high values mean tight binding
reported-conditions: protein: recombinant; tags: N-terminal polyhistidine and DsRed monomer fusion (pET32a); label: CyDye5-dUTP incorporated in the synthesized complementary strand; 3' TTTTT single-stranded linker to array surface; dsDNA, one strand shown
Over roughly 68,000 sequences, “fluorescence intensity (a.u.)” has its median near 9,100; the highest 2% begin near 16,000. The full list was thinned out, with the highest values kept by preference.
The entries below are paired with their reported binding signal.
value-kind: binding signal

- TCCACACACCCCGCTTGCTAACCAACCGTGACACGCAACCCGGAGTCACCTAGTGCAG: 10100 fluorescence intensity (a.u.)
- GTGCTCATCCGCCTCCTCGGGTCGTCTCCATCGACCTCCTCGGAGTCACCTAGTGCAG: 9120 fluorescence intensity (a.u.)
- GATTGGTTGAAAATGTTTCTATTCTTAATGAATATCCTATCGGAGTCACCTAGTGCAG: 8080 fluorescence intensity (a.u.)
- TCCTCCTGTCTCTGCCTCTGCTCGGCTAGTCTAGTGTACTCGGAGTCACCTAGTGCAG: 8810 fluorescence intensity (a.u.)
- CTCTGCACGTTTCTTTCCCCTAACAAATACATGTACACACCGGAGTCACCTAGTGCAG: 9590 fluorescence intensity (a.u.)
- GTTTACATGTGTAGATCTAATGATGCGTTCAATCTAGTTTCGGAGTCACCTAGTGCAG: 8860 fluorescence intensity (a.u.)
- TTAAATGAGTGTTGACTTTTCGTATAACGTTTGACCATTTCGGAGTCACCTAGTGCAG: 14600 fluorescence intensity (a.u.)
- CCTAGCCCTAATTGATCCTTGCCTCGATGTTTTCCCTCCGCGGAGTCACCTAGTGCAG: 10100 fluorescence intensity (a.u.)
- GGTTTTGTGATTTTGACACCCATTCAGGTTCGTTGTTTTTCGGAGTCACCTAGTGCAG: 11900 fluorescence intensity (a.u.)

* * *

assay-target: OsWRKY34 (Oryza sativa, UniProt Q0JBA9 1-250)
test-summary: protein-binding microarray (RPBM); PBS, 2% BSA, 51.3 ng/ul salmon testes DNA, 50 uM zinc acetate, 200 nM TF, 25 C, 1 h; high values mean tight binding
reported-conditions: protein: recombinant; tags: N-terminal polyhistidine and DsRed monomer fusion (pET32a); label: CyDye5-dUTP incorporated in the synthesized complementary strand; 3' TTTTT single-stranded linker to array surface; dsDNA, one strand shown
Whole data set: some 68,000 sequences, median “fluorescence intensity (a.u.)” near 9,100, cut for the highest 2% near 16,000. For the sample, the highest values were picked, then their nearest neighbours and some sequences at random.
value-kind: binding signal

* CTTCTAAACATAGCTTCCACAATCGTCTCCGGGCCCTTCTCGGAGTCACCTAGTGCAG | 8320 fluorescence intensity (a.u.)
* CCCACCTCGCTGTCGTTTCTTCCTCTGGCTGGTCGCGTTGCGGAGTCACCTAGTGCAG | 12700 fluorescence intensity (a.u.)
* ACGTATTTGTGAGGGGATTTGGTACCATTACATCTGTTTTCGGAGTCACCTAGTGCAG | 8192 fluorescence intensity (a.u.)
* TTGACAATGGTTGGGGTGGTGGTGGTGTTCGCGGTGATGACGGAGTCACCTAGTGCAG | 31700 fluorescence intensity (a.u.)
* CACACCTCGCCTCCTCCTCGGCTTGGATCTCGCCGCATCACGGAGTCACCTAGTGCAG | 8210 fluorescence intensity (a.u.)
* CACACCTAGGCCGCCTTTTTCAACCGGGGAGCACACCTTTCGGAGTCACCTAGTGCAG | 10400 fluorescence intensity (a.u.)
* CTTCTTCGATCTCCGGCAATCGCTCCATCGATCGGCGCTTCGGAGTCACCTAGTGCAG | 8370 fluorescence intensity (a.u.)
* GATTTAGAGTTGGAGTCAGTCGGTTTGACCAGCCACATGCCGGAGTCACCTAGTGCAG | 8690 fluorescence intensity (a.u.)
* GGACTGCTCCACCATTTTTAGTCCCGGTTGGTAATACCAACGGAGTCACCTAGTGCAG | 8570 fluorescence intensity (a.u.)
* AGCGCGTCGCTTTCTTTCTTTCTTTCAGTTTTTTTTTTCCCGGAGTCACCTAGTGCAG | 10500 fluorescence intensity (a.u.)
* TTGTTGGGTGCTGAATTGCTGATGTGGTGGGGTGACATGACGGAGTCACCTAGTGCAG | 12500 fluorescence intensity (a.u.)
* CTTCTGCTCTCTAGCTAGCCTTCTTCCTATTGGAAGCTTCCGGAGTCACCTAGTGCAG | 9230 fluorescence intensity (a.u.)
* AGATTGGGTTTGGGTGGTGTGAGGATTGATTTGTTTTTTTCGGAGTCACCTAGTGCAG | 17800 fluorescence intensity (a.u.)
* TCTACACAATTCAAAATCCGGCCCTGTTTATTTTGTACTACGGAGTCACCTAGTGCAG | 8420 fluorescence intensity (a.u.)
* GAGGATTGATTTGTTTTTTTTTTTTGGGGTTTTCTCTTCTCGGAGTCACCTAGTGCAG | 16300 fluorescence intensity (a.u.)
* ATTTGTCTCTTTCGCGTCGTCTCTAACCTAACGTCCCAGACGGAGTCACCTAGTGCAG | 13100 fluorescence intensity (a.u.)
* GTCTCACTCTCCCAATCCGCCTCGGCCCGAGCGCGCGCGCCGGAGTCACCTAGTGCAG | 9530 fluorescence intensity (a.u.)
* GTTTCAGGTTTTTGCAGCCAACAGTTTTGCTGATTTTTTACGGAGTCACCTAGTGCAG | 9480 fluorescence intensity (a.u.)
* TTCTTGATCTTTCTGGTTTCTACTGGTTGATTGTACACTTCGGAGTCACCTAGTGCAG | 8500 fluorescence intensity (a.u.)
